- assay_protocol: Isocratic RP-HPLC lipophilicity (k, log k, extrapolated log kw, slope S), MeOH/water mobile phases
- Type: physicochemical
- test_conditions: mobile phase MeOH/water 80:20 (v/v)
Task for the reader: assign each of the following compounds its reported log k (RP-HPLC).
Answers are plain numbers.

Answered cases to consult:
{"columns": ["compound", "log k (RP-HPLC)"],
 "data": [
  ["COC(=O)Nc1ccc(C(O)CN2CCN(c3ccccc3F)CC2)cc1.Cl (centres unmarked)", "−0.085"],
  ["CCCOC(=O)Nc1cccc(C(O)CN2CCN(c3ccccc3F)CC2)c1.Cl (centres unmarked)", 0.166],
  ["CCOC(=O)Nc1cccc(C(O)CN2CCN(c3ccccc3F)CC2)c1.Cl (centres unmarked)", 0.095]
]}

Kindly give each listed record's log k (RP-HPLC).
1. CCCCOC(=O)Nc1ccc(C(O)CN2CCN(c3ccccc3F)CC2)cc1.Cl (centres unmarked)
2. COC(=O)Nc1cccc(C(O)CN2CCN(c3ccccc3F)CC2)c1.Cl (centres unmarked)
3. CCCOC(=O)Nc1ccc(C(O)CN2CCN(c3ccccc3F)CC2)cc1.Cl (centres unmarked)
4. CCOC(=O)Nc1ccc(C(O)CN2CCN(c3ccccc3F)CC2)cc1.Cl (centres unmarked)
5. CCCCOC(=O)Nc1cccc(C(O)CN2CCN(c3ccccc3F)CC2)c1.Cl (centres unmarked)

Key:
0.240
−0.034
0.128
0.010
0.245

* * *

For each record, write down the corresponding MIC.
- Test system: M. kansasii 6 509/96 clinical isolate
- assay_protocol: In vitro antimycobacterial MIC, dilution-micromethod in Šula semisynthetic medium
- Type: cell-based
- test_conditions: Mycobacterium kansasii, 336 h; 14 d cultivation; read-out: MIC, MK 6 509/96

Please review the entries below; each comes with its answer.
{"columns": ["molecule", "MIC"],
 "data": [
  ["CCCOC(=O)Nc1cccc(C(O)CN2CCN(c3ccccc3F)CC2)c1.Cl (stereo not drawn)", "125 µM"],
  ["CC1COc2c(N3CCN(C)CC3)c(F)cc3c(=O)c(C(=O)O)cn1c23 (stereo not drawn) [OFLX, ofloxacin, reference compound]", "0.5 µM"],
  ["CCOC(=O)Nc1cccc(C(O)CN2CCN(c3ccccc3F)CC2)c1.Cl (stereo not drawn)", "250 µM"],
  ["CCCOC(=O)Nc1ccc(C(O)CN2CCN(c3ccccc3F)CC2)cc1.Cl (stereo not drawn)", "> 250 µM"],
  ["CCCCOC(=O)Nc1ccc(C(O)CN2CCN(c3ccccc3F)CC2)cc1.Cl (stereo not drawn)", "> 250 µM"]
]}

--- query ---
Exercise: MIC for COC(=O)Nc1cccc(C(O)CN2CCN(c3ccccc3F)CC2)c1.Cl (stereo not drawn) ?
Key: 500 µM

* * *

- Test system: M. avium CNCTC My 330/80 (identical with ATCC 25291)
- assay_protocol: In vitro antimycobacterial MIC, dilution-micromethod in Šula semisynthetic medium
- Assay type: cell-based
- test_conditions: Mycobacterium avium, ATCC25291, 336 h; 14 d cultivation; read-out: MIC, MA My 330/88
parameter: MIC (µM)
One number for each entry, in µM.

{"columns": ["molecule", "MIC [µM]"],
 "data": [
  ["CCCCOC(=O)Nc1cccc(C(O)CN2CCN(c3ccccc3F)CC2)c1.Cl (centres unmarked)", 62.5],
  ["COC(=O)Nc1ccc(C(O)CN2CCN(c3ccccc3F)CC2)cc1.Cl (centres unmarked)", 250],
  ["CC1COc2c(N3CCN(C)CC3)c(F)cc3c(=O)c(C(=O)O)cn1c23 (centres unmarked) [OFLX, ofloxacin, reference compound]", 32],
  ["CCCOC(=O)Nc1cccc(C(O)CN2CCN(c3ccccc3F)CC2)c1.Cl (centres unmarked)", 125],
  ["COC(=O)Nc1cccc(C(O)CN2CCN(c3ccccc3F)CC2)c1.Cl (centres unmarked)", 500],
  ["CC[C@@H](CO)NCCN[C@@H](CC)CO [EMB, ethambutol, reference compound]", 16]
]}

Now, please, on to the next molecule.
Exercise: Form field: MIC recorded for CCOC(=O)Nc1cccc(C(O)CN2CCN(c3ccccc3F)CC2)c1.Cl (centres unmarked) with M. avium CNCTC My 330/80 (identical with ATCC 25291) (enter value)
Key: 250
